Tested on: Daudi (Burkitt's Lymphoma)
Test: combination Emax (second highest fraction inhibited in the dose matrix, 72 h); higher = more inhibition; extreme values may be limits of the assay
READOUT: combination Emax

>>> numeric_readout("NC1(C(=O)N[C@@H](CCO)c2ccc(Cl)cc2)CCN(c2ncnc3[nH]ccc23)CC1 [Capivasertib] + COc1nnc2ccc(N3CCC(c4ccc(OCCN5CCN(C)C(=O)[C@H]5C)cc4)CC3)nn12 [AZD5153] (first compound max 10 µM, 7x7, partner max 1 µM)")
0.793
>>> numeric_readout("COc1cccc(OCCCN)c1-c1cc(Nc2cnc(C#N)cn2)n[nH]1 [Prexasertib] + CCc1c2c(nc3ccc(O)cc13)-c1cc3c(c(=O)n1C2)COC(=O)[C@]3(O)CC [SN-38] (first compound max 1 µM, 7x7, partner max 0.3 µM)")
0.987
>>> numeric_readout("Cc1cc2ncnn2cc1Nc1ncc2c(n1)n(C1CCOCC1)c(=O)n2C [AZD7648] + C=CCn1c(=O)c2cnc(Nc3ccc(N4CCN(C)CC4)cc3)nc2n1-c1cccc(C(C)(C)O)n1 [AZD1775] (first compound max 10 µM, partner max 1 µM)")
0.809
>>> numeric_readout("CC(=O)c1c(C)c2cnc(Nc3ccc(N4CCNCC4)cn3)nc2n(C2CCCC2)c1=O [Palbociclib] + Cn1cnc2c(F)c(Nc3ccc(Br)cc3Cl)c(C(=O)NOCCO)cc21 [Selumetinib] (first compound max 10 µM, 7x7, partner max 10 µM)")
0.415
>>> numeric_readout("COc1nnc2ccc(N3CCC(c4ccc(OCCN5CCN(C)C(=O)[C@H]5C)cc4)CC3)nn12 [AZD5153] + Cn1cnc2c(F)c(Nc3ccc(Br)cc3Cl)c(C(=O)NOCCO)cc21 [Selumetinib] (first compound max 1 µM, 7x7, partner max 10 µM)")
0.527
>>> numeric_readout("COc1cccc(OCCCN)c1-c1cc(Nc2cnc(C#N)cn2)n[nH]1 [Prexasertib] + O=C(c1cc(Cc2n[nH]c(=O)c3ccccc23)ccc1F)N1CCN(C(=O)C2CC2)CC1 [Olaparib] (first compound max 1 µM, 7x7, partner max 10 µM)")
0.945
>>> numeric_readout("COc1nnc2ccc(N3CCC(c4ccc(OCCN5CCN(C)C(=O)[C@H]5C)cc4)CC3)nn12 [AZD5153] + CC1(C)CCC(CN2CCN(c3ccc(C(=O)NS(=O)(=O)c4ccc(NCC5CCOCC5)c([N+](=O)[O-])c4)c(Oc4cnc5[nH]ccc5c4)c3)CC2)=C(c2ccc(Cl)cc2)C1 [Venetoclax] (first compound max 1 µM, 7x7, partner max 1 µM)")
0.58
